All values here come from patent US9353104B2.

target: human PDE10A2 (Homo sapiens (Human)); assay: PDE10 fluorescence polarization (IMAP FP) inhibition assay; conditions: human PDE10A2 lysate, FAM-labeled cAMP 50 nM, room temperature; read-out: PDE10A Ki
pKi: −log10 of the molar value.
experimental_readout: pKi

compound: Cc1ccc(CNc2cc(OC[C@H]3C[C@@H]3c3ccc(Cl)cn3)nn(C)c2=O)c(C)n1
numeric_result: 10.72

[a] COc1ccc([C@H]2C[C@@H]2COc2cc(NCc3cccnc3C)c(=O)n(C)n2)nc1
[b] C#CCN(Cc1ccc(OC)cc1)c1cc(OC[C@H]2C[C@@H]2c2ccc(OC)cn2)nn(C)c1=O
# min-compare on pKi between a and b Select an item and report its label. b

[P] Cc1ccc([C@H]2C[C@@H]2COc2cc(NCc3ccnn3C)c(=O)n(C)n2)nc1
[Q] Cc1ccc(CNc2cc(OC[C@H]3C[C@@H]3c3ccccn3)nn(C)c2=O)c(C)n1
Two entries are listed, P and Q . Which one carries the higher pKi? State your choice using its label. Q

* * *

target: human PDE10A2 (Homo sapiens (Human), UniProt Q9Y233); assay: PDE10 fluorescence polarization (IMAP FP) inhibition assay; settings: human PDE10A2 lysate, FAM-labeled cAMP 50 nM, room temperature; read-out: PDE10A Ki
Sequence (Q9Y233 267-1055): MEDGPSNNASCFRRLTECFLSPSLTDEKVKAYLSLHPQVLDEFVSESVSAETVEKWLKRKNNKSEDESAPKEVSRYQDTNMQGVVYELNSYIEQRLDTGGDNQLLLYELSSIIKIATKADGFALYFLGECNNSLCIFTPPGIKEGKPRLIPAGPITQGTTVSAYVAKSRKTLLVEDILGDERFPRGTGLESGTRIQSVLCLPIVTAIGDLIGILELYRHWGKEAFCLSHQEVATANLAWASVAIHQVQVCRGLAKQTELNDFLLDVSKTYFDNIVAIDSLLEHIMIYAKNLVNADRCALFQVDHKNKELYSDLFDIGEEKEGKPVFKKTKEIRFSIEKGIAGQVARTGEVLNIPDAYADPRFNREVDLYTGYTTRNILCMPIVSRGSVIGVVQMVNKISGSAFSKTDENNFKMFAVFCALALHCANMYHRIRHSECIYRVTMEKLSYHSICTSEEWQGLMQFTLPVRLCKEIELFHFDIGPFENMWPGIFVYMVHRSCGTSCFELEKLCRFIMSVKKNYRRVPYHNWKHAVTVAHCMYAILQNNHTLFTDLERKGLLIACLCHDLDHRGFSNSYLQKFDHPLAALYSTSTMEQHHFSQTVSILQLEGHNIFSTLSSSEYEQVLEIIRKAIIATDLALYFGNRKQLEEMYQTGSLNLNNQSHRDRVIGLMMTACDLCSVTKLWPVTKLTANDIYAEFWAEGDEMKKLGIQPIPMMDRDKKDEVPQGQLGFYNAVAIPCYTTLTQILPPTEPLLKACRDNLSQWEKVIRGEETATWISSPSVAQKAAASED
pKi: −log10 of the molar value.
experimental_readout: pKi

Recorded pKi, per entry:
structure_string: Cc1ccc(CNc2cc(OC[C@H]3C[C@@H]3c3ccc(C)cn3)nn(C)c2=O)nc1
pKi: 10.29
//
structure_string: Cc1cccc([C@H]2C[C@@H]2COc2cc(NCc3cnn(C)c3)c(=O)n(C)n2)n1
pKi: 10.05
//
structure_string: COc1ccc([C@H]2C[C@@H]2COc2cc(NCc3cnn(C)c3Cl)c(=O)n(C)n2)nc1
pKi: 8.90

[P] Cc1ccc(CNc2cc(OC[C@H]3C[C@@H]3c3ccc(OC(F)F)cn3)nn(C)c2=O)c(C)n1
[Q] Cc1ccc(CNc2cc(OC[C@H]3C[C@@H]3c3ccn(C)n3)nn(C)c2=O)cn1
[R] Cc1cc(C(=O)Nc2cc(OC[C@H]3C[C@@H]3c3ccn(C)n3)nn(C)c2=O)n(C)n1
[S] Cc1nn(C)c(Cl)c1CNc1cc(OC[C@H]2C[C@@H]2c2ccn(C)n2)nn(C)c1=O
[T] COc1ccc([C@H]2C[C@@H]2COc2cc(N(Cc3ccc(C)nc3C)Cc3ccc(C)nc3C)c(=O)n(C)n2)nc1
Put the items in sequence by pKi, from largest down. A ranking is expressed here by listing the labels in the requested order. P, Q, T, S, R
(P: 10.55, Q: 9.09, T: 8.23, S: 7.93, R: 7.12)

* * *

target: UniProt Q9Y233; assay: PDE10 fluorescence polarization (IMAP FP) inhibition assay; settings: human PDE10A2 lysate, FAM-labeled cAMP 50 nM, room temperature; read-out: PDE10A Ki
experimental_readout: Ki (nM)

// known answers, use as guide
structure_string: COc1ccc([C@H]2C[C@@H]2COc2cc(NCc3ccc(Cl)c(C)n3)c(=O)n(C)n2)nc1
study_target: UniProt Q9Y233
Ki (nM): 1.3
//
structure_string: Cc1cccc([C@H]2C[C@@H]2COc2cc(NCc3cc(C)nn3C)c(=O)n(C)n2)n1
study_target: UniProt Q9Y233
Ki (nM): 0.005
//
structure_string: COc1ccc([C@H]2C[C@@H]2COc2nn(C)c(=O)c(NCc3nnc(C)s3)c2Br)nc1
study_target: UniProt Q9Y233
Ki (nM): 0.004
//
structure_string: COc1ccc([C@H]2C[C@@H]2COc2cc(NCc3c(C)nn(C)c3Cl)c(=O)n(C)n2)nc1
study_target: UniProt Q9Y233
Ki (nM): 1.58

[A] COc1ccc([C@H]2C[C@@H]2COc2cc(NCc3cnn(C)c3N(C)C)c(=O)n(C)n2)nc1
[B] Cc1ccc(CNc2cc(OC[C@H]3C[C@@H]3c3ccc4ccccc4n3)nn(C)c2=O)c(C)n1
Which has the smaller recorded Ki, A or B ? Your answer should be the label attached to the chosen record. B

[a] COc1ccc([C@H]2C[C@@H]2COc2cc(NCc3ccc(C)cn3)c(=O)n(C)n2)nc1
[b] Cc1ncc(CNc2cc(OC[C@H]3C[C@@H]3c3ccc(OC(F)F)cn3)nn(C)c2=O)s1
[c] COc1ccc([C@H]2C[C@@H]2COc2cc(NCc3cnccn3)c(=O)n(C)n2)nc1
[d] COc1ccc(CNc2cc(OC[C@H]3C[C@@H]3c3ccn(C)n3)nn(C)c2=O)cc1
Order by Ki, ascending. Put the labels in the order asked and list them. a, b, d, c
(a: 0.019 nM, b: 0.109 nM, d: 0.502 nM, c: 5.7 nM)

[a] COc1ccc(Cn2nc(OC[C@H]3C[C@@H]3c3ccc(OC)cn3)cc(NCc3nnc(C)s3)c2=O)cc1
[b] Cc1cnc(CNc2cc(OC[C@H]3C[C@@H]3c3ccc(F)cn3)nn(C)c2=O)s1
Could you check which of a and b has a smaller value for Ki? Give the chosen item's label as your response. b

[A] COc1ccc([C@H]2C[C@@H]2COc2cc(NC(=O)c3cc(C)nn3C)c(=O)n(C)n2)nc1
[B] COc1ccc([C@H]2C[C@@H]2COc2cc(NCc3ccc(F)c(C)n3)c(=O)n(C)n2)nc1
[C] Cc1cc(CNc2cc(OC[C@H]3C[C@@H]3c3ccc(OC(F)F)cn3)nn(C)c2=O)n(C)n1
Put the items in sequence by Ki, from largest down. Use the labels to give the requested order. A, B, C

* * *

target: human PDE10A2 (Homo sapiens (Human), UniProt Q9Y233); experiment: PDE10 fluorescence polarization (IMAP FP) inhibition assay; details: human PDE10A2 lysate, FAM-labeled cAMP 50 nM, room temperature; read-out: PDE10A Ki
pKi: −log10 of the molar value.
experimental_readout: pKi

structure_string: COc1ccc([C@H]2C[C@@H]2COc2nn(C)c(=O)c(NCc3nnc(C)s3)c2Cl)nc1
pKi: 11.40
//
structure_string: CCn1nc(OC[C@H]2C[C@@H]2c2ccc(OC)cn2)cc(NCc2nnc(C)s2)c1=O
pKi: 10.49

[1] COc1ccc([C@H]2C[C@@H]2COc2cc(NC(=O)c3cnn(C)c3Cl)c(=O)n(C)n2)nc1
[2] Cc1ccc([C@H]2C[C@@H]2COc2cc(NCc3cn(C)nc3C(F)(F)F)c(=O)n(C)n2)nc1
Larger number for pKi: 1 , or 2 ? API: response body contains the label of the selected item. 2

[a] COc1ccc([C@H]2C[C@@H]2COc2cc(NCc3cnn(C)n3)c(=O)n(C)n2)nc1
[b] COc1ccc(Cn2cc(CNc3cc(OC[C@H]4C[C@@H]4c4ccc(OC)cn4)nn(C)c3=O)c(C)n2)cc1
Hey, which is lower on measured pKi, a or b ? // respond with label for picked entry b

* * *

target: human PDE10A2 (Homo sapiens (Human), UniProt Q9Y233); assay: PDE10 fluorescence polarization (IMAP FP) inhibition assay; settings: human PDE10A2 lysate, FAM-labeled cAMP 50 nM, room temperature; read-out: PDE10A Ki
Recorded Ki, one value per entry.
Kindly answer with a numeric value in pM, unit omitted.

compound: Cc1nnc(CNc2cc(OC[C@H]3C[C@@H]3c3ccc(Cl)cn3)nn(C)c2=O)s1
study_target: human PDE10A2 (Homo sapiens (Human), UniProt Q9Y233)
Ki / pM: 81.9
//
compound: COc1ccc([C@H]2C[C@@H]2COc2cc(NCc3cccnc3)c(=O)n(C)n2)nc1 [Example 68]
study_target: human PDE10A2 (Homo sapiens (Human), UniProt Q9Y233)
Ki / pM: 11600

Entry under review: Cc1nnc(CNc2cc(OC[C@H]3C[C@@H]3c3ccc(OC(F)F)cn3)nn(C)c2=O)s1 . Reported Ki? 157
